- MEASUREMENT TARGET: full length recombinant Pim-1 (Homo sapiens (Human))
- Sequence (P11309 whole entry): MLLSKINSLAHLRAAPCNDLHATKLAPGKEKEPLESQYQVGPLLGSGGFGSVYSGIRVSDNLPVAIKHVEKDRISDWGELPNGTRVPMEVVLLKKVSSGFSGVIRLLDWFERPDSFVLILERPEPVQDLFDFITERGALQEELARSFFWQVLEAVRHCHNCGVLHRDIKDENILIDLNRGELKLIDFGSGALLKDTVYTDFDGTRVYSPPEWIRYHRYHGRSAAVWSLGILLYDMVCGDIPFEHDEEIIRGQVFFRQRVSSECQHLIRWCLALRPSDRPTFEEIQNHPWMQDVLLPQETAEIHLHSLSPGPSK
- EXPERIMENTAL PROTOCOL: Pim enzyme assay (HTRF, phosphorylation of biotinylated-BAD (S112) peptide), Pim-1
- Format: biochemical
METRIC: IC50 (nM)
Report the figure in nM without appending any unit label.

COc1nc(-c2c[nH]c3ccc(-c4nnc(NC(C)(C)C)o4)cc23)ncc1F [Example 55, 2,2,2-trifluoroacetate] = 8.77
CC1CCCCN1c1cncc(-c2c[nH]c3ccc(-c4nnc(N)s4)cc23)n1 (centres unmarked) = 1.77
COc1cc(-c2c[nH]c3ccc(-c4nnc(N)s4)cc23)nc(OC)n1 = 73.2
CC(C)Nc1nnc(-c2cc3c(-c4cncc(C5CC5)n4)c[nH]c3cc2F)o1 = 4.71
CNC(=O)c1ccc(F)c(-c2c[nH]c3ccc(-c4nnc(NC(C)C)o4)cc23)c1 = 233
Nc1ncc(-c2ccc3[nH]cc(-c4cccc(N5CCOCC5)n4)c3c2)s1 = 94.9

Here is another compound to look at.
# input compound: `CC(C)Nc1nnc(-c2ccc3[nH]cc(-c4ccc(C(N)=O)cc4F)c3c2)o1` ; wanted: its IC50 69.6
